# TARGET DESC: FK506 Binding Protein 12 kDa (FKBP12) (Homo sapiens)
# Sequence (P62942 2-108): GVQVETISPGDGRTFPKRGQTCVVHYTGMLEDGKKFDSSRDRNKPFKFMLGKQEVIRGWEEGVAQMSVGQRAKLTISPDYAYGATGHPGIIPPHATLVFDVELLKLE
EXPERIMENTAL READOUT: IC50

>  <COMPOUND>
CCC(C)(C)C(=O)C(=O)N1CCCC[C@H]1C(=O)O[C@H](CCc1ccc(OC)c(OC)c1)c1cccc(OCC(=O)O)c1 [SLF-OH]

>  <RESULT>
0.2 µM

$$$$
